B1: Storkhead-box protein 2, residues 64 to 141; numbered along this chain, Q9P2F5 (parent)
chain: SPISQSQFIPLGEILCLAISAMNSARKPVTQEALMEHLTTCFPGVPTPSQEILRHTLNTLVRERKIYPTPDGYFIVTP

variants of: B1; experiment: abundance fitness (aPCA) (normalised: wild type 0, dead -1); higher = more abundant; growth selection in yeast, the domain comes from the species named; details: Homo sapiens
measurementName: abundance fitness
Lab note: record the figure alone, no unit after it.

Recorded results for 4 variants are shown here.
mutationLabel: S1V
abundance fitness: -0.354
--
mutationLabel: Q5A
abundance fitness: 0.037
--
mutationLabel: L15E
abundance fitness: -0.67
--
mutationLabel: V29G
abundance fitness: -0.417

Which measured abundance fitness value corresponds to T69R ? -0.015

Which measured abundance fitness value corresponds to N58G ? 0

Which measured abundance fitness value corresponds to R64A ? -0.029

Which measured abundance fitness value corresponds to L60Q ? -0.342

Which measured abundance fitness value corresponds to G12D ? -0.127

Which measured abundance fitness value corresponds to T39P ? -0.076
